# Test Details: In vivo pharmacokinetic study in Sprague-Dawley rats
# Assay Context: Sprague-Dawley, rat, plasma, po, 10 mg/kg, PO, read-out: absolute oral bioavailability, % of ARI-002
Recorded Metric: bioavailability (%)
Provide the reading as a plain figure in %.

IN: For CCC(=O)c1csc(C(=O)c2c[nH]c3cc(F)c(F)cc23)n1 [ARI-149] , what is its reported bioavailability?
OUT: 62

----------
# Test system: mouse hepatocytes
# Test Details: Hepatocyte intrinsic clearance assay, mouse hepatocytes
# Type: in vitro ADME
# Assay Context: mouse hepatocytes
Recorded Metric: clearance / metabolic profile, in words

IN: For Nc1nnc(-c2csc(C(=O)c3c[nH]c4c(F)cccc34)n2)o1 , what is its reported clearance / metabolic profile, in words?
OUT: low clearance

IN: For Nc1nnc(-c2csc(C(=O)c3c[nH]c4cc(Cl)c(Cl)cc34)n2)o1 , what is its reported clearance / metabolic profile, in words?
OUT: low clearance

IN: For Cc1noc(-c2csc(C(=O)c3c[nH]c4ccccc34)n2)n1 , what is its reported clearance / metabolic profile, in words?
OUT: low clearance

----------
# Tested on: human hepatocytes
# Test Details: Hepatocyte intrinsic clearance assay, human hepatocytes
# Format: in vitro ADME
# Assay Context: Human Hepatocytes, well stirred liver model, fu=1
# EH (%) hepatic extraction ratio per record follows
Provide the reading as a plain figure in %.

Here's what some known entries look like.
IN: For COC(=O)c1csc(C(=O)c2c[nH]c3ccc(Cl)cc23)n1 [ARI-055] , what is its reported EH (%) hepatic extraction ratio?
OUT: 56

IN: For NCc1nc(-c2csc(C(=O)c3c[nH]c4c(F)cccc34)n2)no1 [ARI-146] , what is its reported EH (%) hepatic extraction ratio?
OUT: 19

IN: For Cc1nnc(-c2csc(C(=O)c3c[nH]c4ccccc34)n2)o1 [ARI-060] , what is its reported EH (%) hepatic extraction ratio?
OUT: 24

IN: For CCC(=O)c1csc(C(=O)c2c[nH]c3cc(F)ccc23)n1 [ARI-143] , what is its reported EH (%) hepatic extraction ratio?
OUT: 36

***
IN: For CCC(=O)c1csc(C(=O)c2c[nH]c3cc(F)c(F)cc23)n1 [ARI-149] , what is its reported EH (%) hepatic extraction ratio?
OUT: 39

----------
# Tested on: mouse hepatocytes
# Test Details: Hepatocyte intrinsic clearance assay, mouse hepatocytes
# Format: in vitro ADME
# Assay Context: Mouse Hepatocytes, 1 μM test compound
Recorded Metric: CLint (μL/min/10^6 ells)
Provide the reading as a plain figure in μL/min/10^6 ells.

Here's what some known entries look like.
IN: Quick check: CLint (μL/min/10^6 ells) on mouse hepatocytes, item CCC(=O)c1csc(C(=O)c2c[nH]c3cc(F)c(F)cc23)n1 ?
OUT: 2.9

IN: Quick check: CLint (μL/min/10^6 ells) on mouse hepatocytes, item NCc1nnc(-c2csc(C(=O)c3c[nH]c4c(F)cccc34)n2)o1 ?
OUT: 5.1

IN: Quick check: CLint (μL/min/10^6 ells) on mouse hepatocytes, item Cc1nc(-c2csc(C(=O)c3c[nH]c4ccccc34)n2)no1 ?
OUT: 40.5

IN: Quick check: CLint (μL/min/10^6 ells) on mouse hepatocytes, item Cc1nnc(-c2csc(C(=O)c3c[nH]c4ccccc34)n2)o1 ?
OUT: 5.0

IN: Quick check: CLint (μL/min/10^6 ells) on mouse hepatocytes, item Nc1nnc(-c2csc(C(=O)c3c[nH]c4ccccc34)n2)o1 ?
OUT: 0.7

IN: Quick check: CLint (μL/min/10^6 ells) on mouse hepatocytes, item CNC(=O)c1csc(C(=O)c2c[nH]c3ccc(F)cc23)n1 ?
OUT: 7.1

***
IN: Quick check: CLint (μL/min/10^6 ells) on mouse hepatocytes, item COC(=O)c1csc(C(=O)c2c[nH]c3ccc(F)cc23)n1 ?
OUT: 51.9

IN: Quick check: CLint (μL/min/10^6 ells) on mouse hepatocytes, item Nc1nnc(-c2csc(C(=O)c3c[nH]c4ccccc34)n2)s1 ?
OUT: 2.5

IN: Quick check: CLint (μL/min/10^6 ells) on mouse hepatocytes, item NCc1nc(-c2csc(C(=O)c3c[nH]c4c(F)cccc34)n2)no1 ?
OUT: 6.9

IN: Quick check: CLint (μL/min/10^6 ells) on mouse hepatocytes, item CCC(=O)c1csc(C(=O)c2c[nH]c3c(F)cccc23)n1 ?
OUT: 1.5

IN: Quick check: CLint (μL/min/10^6 ells) on mouse hepatocytes, item CCC(=O)c1csc(C(=O)c2c[nH]c3ccc(Cl)cc23)n1 ?
OUT: 3.3

IN: Quick check: CLint (μL/min/10^6 ells) on mouse hepatocytes, item Nc1nnc(-c2csc(C(=O)c3c[nH]c4ccc(F)cc34)n2)o1 ?
OUT: 3.6

IN: Quick check: CLint (μL/min/10^6 ells) on mouse hepatocytes, item CCC(=O)c1csc(C(=O)c2c[nH]c3cccc(F)c23)n1 ?
OUT: 11

IN: Quick check: CLint (μL/min/10^6 ells) on mouse hepatocytes, item O=C(c1nc(-c2nnco2)cs1)c1c[nH]c2ccccc12 ?
OUT: 25.8
